experiment: in vivo; conditions: rat, iv, 5 mg/kg

compound: COc1ccc2c(c1)c(CC(=O)O)c(C)n2C(=O)c1ccc(Cl)cc1 [indomethacin]
unit abbrev: µg/mL
C0: 117
